# Tested on: HCT-116 colon
# experimental details: NCI-60 one-dose screen, 48 h (100 = growth as untreated, 0 = no growth, -100 = all killed)
# experimental conditions: 10 µM
Compounds without any hit were thinned out: in the full panel of roughly 83,000, 20% have a hit.
endpoint name: growth (%)
# value in %; strip the unit string

[ask] Report growth for COc1cc(OC)c(S(=O)(=O)N(CCCl)CCCl)cc1C(=O)/C=C/c1ccc(Cl)cc1
[reply] 49.2

[ask] Report growth for C/C=C\C(=O)O[C@@H]1CC2O[C@@H]3C=C(C)C(=O)C[C@]3(C)[C@]1(C)[C@]21CO1
[reply] -29.4

----------
# Test system: TK-10 renal
# experimental details: NCI-60 one-dose screen, 48 h (100 = growth as untreated, 0 = no growth, -100 = all killed)
# experimental conditions: 10 µM
This is part of a sample that, as a whole, favours compounds with a hit. Of some 83,000 tested, about 20% had one in any assay.
endpoint name: growth (%)
# value in %; strip the unit string

Here are 5 molecules together with their reported answers.
C[C@@H]1CCC/C=C/[C@H]2C[C@@H](O)C[C@@H]2[C@@H](O)/C=C/C(=O)O1    -45
CC1=C(CN(O)C(N)=O)C2=C(C)C3(CC3)[C@](C)(O)C(=O)C2=C1    -5.27
CCC(C)[C@H]1C(=O)O[C@H](C(C)C)C(=O)N(C)[C@@H](C(C)C)C(=O)O[C@H](C(C)C)C(=O)N(C)[C@@H](C(C)C)C(=O)O[C@H](C(C)C)C(=O)N1C (stereo partly drawn)    8.22
C[C@@H]1C[C@H]2C(=O)O[C@@H](C)C(NC(=O)[C@H](Cc3cc(F)cc(F)c3)NC(=O)Nc3ccc(OS(=O)(=O)F)cc3)C(=O)N3CCC[C@H]3C(=O)N3CCO[C@H](C)[C@H]3C(=O)N[C@@H](CO)C(=O)N2C1 (stereo partly drawn)    71.7
Cc1ccc(CNc2nc3ccc(OC/C(=C/F)CN)cc3o2)cn1    71.9

[ask] Report growth for CC1=C[C@H]2O[C@@H]3C[C@@H](O)[C@](C)([C@@]2(C)CC1)[C@@]31CO1
[reply] 52.8

[ask] Report growth for CC(=O)O[C@@H]1C[C@H]2O[C@@H]3C=C(C)CC[C@]3(C)[C@]1(C)[C@]21CO1
[reply] 66.6

[ask] Report growth for COc1cccc2c1cc([N+](=O)[O-])c1c(C(=O)O)cc3c(c12)OCO3
[reply] 100

----------
# System: BT-549 breast
# experimental details: NCI-60 one-dose screen, 48 h (100 = growth as untreated, 0 = no growth, -100 = all killed)
# experimental conditions: 10 µM
This is part of a sample that, as a whole, favours compounds with a hit. Of some 83,000 tested, about 20% had one in any assay.
endpoint name: growth (%)
# value in %; strip the unit string

Here are 3 compounds together with their reported answers.
CC(=O)O[C@@H]1C[C@H]2O[C@@H]3C=C(C)CC[C@]3(C)[C@]1(C)[C@]21CO1    -14.3
C[C@@H]1CCC/C=C/[C@H]2C[C@@H](O)C[C@@H]2[C@@H](O)/C=C/C(=O)O1    6.57
C[C@@H]1C[C@H]2C(=O)O[C@@H](C)C(NC(=O)[C@H](Cc3cc(F)cc(F)c3)NC(=O)Nc3ccc(OS(=O)(=O)F)cc3)C(=O)N3CCC[C@H]3C(=O)N3CCO[C@H](C)[C@H]3C(=O)N[C@@H](CO)C(=O)N2C1 (some centres undefined)    22.4

Okay, now this compound:
[ask] Report growth for COC(=O)[C@H]1[C@@H](O)[C@@]2(O)c3c(OC)cc(OC)cc3O[C@@]2(c2ccc(OC)cc2)[C@@H]1c1ccccc1
[reply] -17.5
